All figures here come from a melting point compilation (Tetko et al.).

Entries annotated with measured melting point

Recorded melting point, per entry:
{"Compound": "O=S(=O)(Nc1cccc(Br)c1)c1ccccc1", "melting point": "116 to 118 °C"}
{"Compound": "CNC(=O)C(Br)Cc1ccccc1 (configuration not stated)", "melting point": "103 to 105 °C"}
{"Compound": "Clc1ccc(C2CC2)nn1", "melting point": "103 to 105 °C"}
{"Compound": "CON(C)S(=O)(=O)c1cccc(C(=O)O)c1", "melting point": "134 to 138 °C"}
{"Compound": "Nc1nc(C(=O)O)n[nH]1", "melting point": "178 to 182 °C"}
{"Compound": "O=C(Nc1nc(-c2ccc(Cl)c(Cl)c2)cs1)C(Cl)c1ccccc1 (configuration not stated)", "melting point": "128 to 130 °C"}
{"Compound": "NN1C(=O)NC2(CCCCC2)C1=O", "melting point": "164 to 166 °C"}
{"Compound": "CC1CN(c2ccc(N)cc2C(F)(F)F)CC(C)O1 (configuration not stated)", "melting point": "122 to 124 °C"}
{"Compound": "Cc1nn(C)c2nc(C3CC3)cc(C(=O)O)c12", "melting point": "242 to 244 °C"}
{"Compound": "NNC(=O)CC1CCS(=O)(=O)C1 (configuration not stated)", "melting point": "104 to 106 °C"}

Using the record for OCc1cncc2ccccc12 , state its measured melting point.
86 to 88 °C

Please report melting point for the following compound: Nc1ccccc1C(=O)Nc1ccc2c(c1)OCCO2
117 to 119 °C

----------
Metric name: melting point

Answered cases to consult:
{"Compound": "O=c1ccc2ccc(Cl)c(Cl)c2[nH]1", "Measured": "241 to 243 °C"}
{"Compound": "Cc1cc(N)n(Cc2ccccc2)n1", "Measured": "68 to 70 °C"}
{"Compound": "CC(C(=O)NC1CCC(C(=O)O)CC1)n1cccn1 (stereo unspecified)", "Measured": "154 to 156 °C"}
{"Compound": "Clc1nc(-c2ccccn2)nc2scc(-c3ccccc3)c12", "Measured": "160 to 162 °C"}

Return the recorded melting point value; entry: O=C(O)c1c[nH]c2cccc(Br)c12
159 to 161 °C

----------
Here the recorded melting point is given for each entry.

{"Compound": "CC1CCC(N2CC(C(=O)O)CC2=O)CC1 (stereo not drawn)", "melting point": "143 to 145 °C"}

Give melting point for the following compound: CN(C)S(=O)(=O)c1ccc2c(c1)CCN2
111 to 113 °C

Give melting point for the following compound: CCNC(=O)c1cc(Cl)ccc1N
122 to 124 °C

Give the reported melting point for this compound. O=C(Nc1nnc(C2CC2)s1)OCC(F)(F)F
197 to 199 °C

Determine from records and report melting point for Cc1cccc(-c2[nH]ncc2C=O)c1
55 to 57 °C

Give me measured melting point, please, for this compound: O=C(O)C1(O)Cc2ccccc2C1
176 to 178 °C

Please report the measured melting point for CCOC(=O)/C(C#N)=C\Nc1cc(OC)ccc1OC
131 to 133 °C

----------
Metric name: melting point

{"Mol smiles": "O=C(O)c1cc2ccccc2c2cccnc12", "melting point": "200 to 202 °C"}
{"Mol smiles": "CSCc1c(C(=O)O)sc2ccccc12", "melting point": "201 to 203 °C"}
{"Mol smiles": "c1cc2c(cn1)CCN2", "melting point": "77 to 79 °C"}
{"Mol smiles": "Cc1nn(-c2ccc(F)cc2)nc1C(=O)O", "melting point": "167 to 169 °C"}
{"Mol smiles": "Clc1ccc(NCc2ccccn2)cc1", "melting point": "87 to 89 °C"}
{"Mol smiles": "O=C(O)CC1=C(c2cccs2)N2CCN=C2S1", "melting point": "220 to 222 °C"}
{"Mol smiles": "COCc1ccc(C(=O)O)cc1", "melting point": "88 to 92 °C"}
{"Mol smiles": "Cc1sc(N)nc1C(C)C", "melting point": "107 to 109 °C"}
{"Mol smiles": "O=C(O)c1ccccc1N1CCCC1", "melting point": "87 to 89 °C"}
{"Mol smiles": "Cc1c(N)cccc1COC1CCCCC1", "melting point": "54 to 56 °C"}

Provide only the value of recorded melting point for COc1ccc(C=O)cc1OCC(C)C
40 to 42 °C

For O=C1C=CC(=O)N1c1cccc([N+](=O)[O-])c1 , write its melting point.
129 to 131 °C

Tell me measured melting point for COC(=O)c1cccc(Oc2ccnc(Cl)n2)c1 please.
117 to 119 °C

Note down melting point recorded for COc1ccc(C#N)cc1CBr
123 to 125 °C

Specify reported melting point for the molecule shown: O=C(Nc1nccs1)OCC(F)(F)F
167 to 169 °C

Identify measured melting point associated with NNC(=O)N1CCOCC1
121 to 123 °C

Output melting point of O=C1CCc2cc(S(=O)(=O)Cl)c(F)cc2N1
207 to 209 °C
